Recorded pIC50 values for a group of molecules are listed next.
target: α4β7 integrin (Homo sapiens (Human), UniProt P13612+P26010); experiment: Integrin Adhesion Assay: Protocol 4 (MAdCAM-coated plate, RPMI-8866 cells with stable LOF mutation of the ITGB1 gene); format: cell-based; conditions: RPMI-8866 cells with stable LOF mutation of the ITGB1 gene; read-out: Mean IC50 α4β7 KO^a
Sequence (P13612 34-1032): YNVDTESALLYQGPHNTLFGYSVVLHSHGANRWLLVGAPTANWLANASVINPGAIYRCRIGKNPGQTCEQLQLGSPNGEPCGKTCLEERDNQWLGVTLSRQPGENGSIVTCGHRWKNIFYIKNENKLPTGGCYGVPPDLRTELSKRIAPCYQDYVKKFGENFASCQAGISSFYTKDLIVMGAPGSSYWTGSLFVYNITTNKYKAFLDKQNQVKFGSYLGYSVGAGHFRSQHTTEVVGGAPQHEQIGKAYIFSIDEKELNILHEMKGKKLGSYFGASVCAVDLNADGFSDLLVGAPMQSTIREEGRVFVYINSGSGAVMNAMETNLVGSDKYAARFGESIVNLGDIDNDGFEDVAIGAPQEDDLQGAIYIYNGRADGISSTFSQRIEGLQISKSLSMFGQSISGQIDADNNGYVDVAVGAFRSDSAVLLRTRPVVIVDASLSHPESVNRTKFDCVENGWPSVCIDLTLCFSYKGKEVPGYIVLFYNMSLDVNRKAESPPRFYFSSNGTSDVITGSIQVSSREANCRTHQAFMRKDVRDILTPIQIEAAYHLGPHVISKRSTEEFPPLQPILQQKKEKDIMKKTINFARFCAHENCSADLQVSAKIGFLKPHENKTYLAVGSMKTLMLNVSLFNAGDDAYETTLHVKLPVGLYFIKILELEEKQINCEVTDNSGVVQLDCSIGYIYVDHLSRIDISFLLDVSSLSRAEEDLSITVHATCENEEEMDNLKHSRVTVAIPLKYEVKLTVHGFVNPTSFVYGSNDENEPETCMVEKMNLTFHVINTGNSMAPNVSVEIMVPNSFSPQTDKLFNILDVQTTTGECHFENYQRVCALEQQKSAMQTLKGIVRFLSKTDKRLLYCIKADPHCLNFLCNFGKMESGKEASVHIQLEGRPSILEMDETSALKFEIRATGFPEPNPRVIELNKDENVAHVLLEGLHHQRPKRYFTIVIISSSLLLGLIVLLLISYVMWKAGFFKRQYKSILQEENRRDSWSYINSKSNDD
Sequence (P26010 20-798): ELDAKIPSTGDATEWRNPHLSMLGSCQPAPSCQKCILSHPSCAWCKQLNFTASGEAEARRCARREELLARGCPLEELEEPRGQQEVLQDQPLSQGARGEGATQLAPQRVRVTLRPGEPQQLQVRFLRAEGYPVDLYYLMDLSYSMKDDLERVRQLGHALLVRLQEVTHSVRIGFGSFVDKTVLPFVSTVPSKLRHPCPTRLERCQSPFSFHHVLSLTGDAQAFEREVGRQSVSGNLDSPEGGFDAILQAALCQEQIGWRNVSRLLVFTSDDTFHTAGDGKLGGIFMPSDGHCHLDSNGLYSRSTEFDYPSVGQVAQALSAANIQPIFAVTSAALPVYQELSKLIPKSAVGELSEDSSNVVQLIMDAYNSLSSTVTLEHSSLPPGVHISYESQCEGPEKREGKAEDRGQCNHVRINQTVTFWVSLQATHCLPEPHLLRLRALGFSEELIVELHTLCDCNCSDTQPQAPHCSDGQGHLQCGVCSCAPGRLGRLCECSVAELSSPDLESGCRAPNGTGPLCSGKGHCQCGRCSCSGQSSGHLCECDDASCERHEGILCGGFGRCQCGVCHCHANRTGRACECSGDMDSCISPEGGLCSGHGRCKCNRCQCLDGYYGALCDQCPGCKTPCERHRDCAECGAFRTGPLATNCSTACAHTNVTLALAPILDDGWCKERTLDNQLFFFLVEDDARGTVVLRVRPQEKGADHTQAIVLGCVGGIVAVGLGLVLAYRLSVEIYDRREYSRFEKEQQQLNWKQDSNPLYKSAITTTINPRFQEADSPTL
pIC50: −log10 of the molar value.

1. Cn1c(=O)c(-c2cccc3c(C[C@H](NC(=O)c4c(F)ccc(C5CCC(F)(F)CC5)c4F)C(=O)O)cccc23)c(C(F)(F)F)c2ccccc21 [Compound 382] = 6.00 to 7.00
2. COc1ccc(CN2CCCCC2)c(C(F)(F)F)c1-c1cccc2c(C[C@H](NC(=O)C3(C(F)(F)F)CCN(CC(F)(F)F)CC3)C(=O)O)cccc12 [Compound 564] = > 8.00
3. O=C(N[C@@H](Cc1cccc2c(-c3cccc4cccnc34)cccc12)C(=O)O)c1c(F)cccc1F [Compound 500] = < 6.00
4. CN(C)CCc1cc(-c2cccc3c(C[C@H](NC(=O)C4(C(F)(F)F)CCN(CC(F)(F)F)CC4)C(=O)O)cccc23)c2cnccc2c1 [Compound 469] = 7.00 to 8.00
5. O=C(O)[C@H](Cc1cccc2c(-c3nccc4ccc(CCCN5CCC(F)(F)CC5)cc34)cccc12)NC(=O)C1(C(F)(F)F)CCN(CC(F)(F)F)CC1 [Compound 539] = > 8.00

Value lookup for pIC50; key = CC[C@H](N1CCC(C(=O)N[C@@H](Cc2cccc3c(-c4c(C(F)(F)F)c5ccccc5n(C)c4=O)cccc23)C(=O)O)(C(F)(F)F)CC1)C(F)(F)F [Compound 518] < 6.00

Now the molecule O=C(O)[C@H](Cc1cccc2c(-c3nccc4ccc(CCCN5CCCCC5)cc34)cccc12)NC(=O)C1(C(F)(F)F)CCNCC1 [Compound 549] > 8.00

Now the molecule COc1ccc(CN(C)C)c(OC)c1-c1cccc2c(C[C@H](NC(=O)c3c(Cl)cccc3Cl)C(=O)O)cccc12 [Compound 612] > 8.00

Now the molecule COc1ccc(CN(C)C)c(C(F)(F)F)c1-c1cccc2c(C[C@H](NC(=O)C3(C(F)(F)F)CCN(CC(F)(F)F)CC3)C(=O)O)cccc12 [Compound 563] > 8.00

Now the molecule Cn1c(=O)c(-c2cccc3c(C[C@H](NC(=O)c4c(F)cccc4C(F)(F)F)C(=O)O)cccc23)c(C(F)(F)F)c2ccccc21 [Compound 443] < 6.00

Now the molecule COCCN1CCC(C(=O)N[C@@H](Cc2cccc3c(-c4c(C(F)(F)F)c5ccccc5n(C)c4=O)cccc23)C(=O)O)(C(F)(F)F)CC1 [Compound 502] > 8.00

Now the molecule Cn1c(=O)c(-c2cccc3c(C[C@H](NC(=O)C4(C(F)(F)F)CCN(C5COCC5C(F)(F)F)CC4)C(=O)O)cccc23)c(C(F)(F)F)c2ccccc21 (stereo partly drawn) [Compound 513] 7.00 to 8.00

====

target: α4β1 integrin (Homo sapiens (Human), UniProt P05556+P13612); assay: Integrin Adhesion Assay: Protocol 5 (VCAM-coated plate, RPMI-8866 cells with stable LOF mutation of the ITGB7 gene); assay type: cell-based; conditions: Protocol 5; RPMI-8866 cells with LOF mutation of ITGB7, VCAM; read-out: Mean IC50 α4β1 KO
Sequence (P13612 34-1032): as the sequence (P13612 34-1032) above
Sequence (P05556 21-798): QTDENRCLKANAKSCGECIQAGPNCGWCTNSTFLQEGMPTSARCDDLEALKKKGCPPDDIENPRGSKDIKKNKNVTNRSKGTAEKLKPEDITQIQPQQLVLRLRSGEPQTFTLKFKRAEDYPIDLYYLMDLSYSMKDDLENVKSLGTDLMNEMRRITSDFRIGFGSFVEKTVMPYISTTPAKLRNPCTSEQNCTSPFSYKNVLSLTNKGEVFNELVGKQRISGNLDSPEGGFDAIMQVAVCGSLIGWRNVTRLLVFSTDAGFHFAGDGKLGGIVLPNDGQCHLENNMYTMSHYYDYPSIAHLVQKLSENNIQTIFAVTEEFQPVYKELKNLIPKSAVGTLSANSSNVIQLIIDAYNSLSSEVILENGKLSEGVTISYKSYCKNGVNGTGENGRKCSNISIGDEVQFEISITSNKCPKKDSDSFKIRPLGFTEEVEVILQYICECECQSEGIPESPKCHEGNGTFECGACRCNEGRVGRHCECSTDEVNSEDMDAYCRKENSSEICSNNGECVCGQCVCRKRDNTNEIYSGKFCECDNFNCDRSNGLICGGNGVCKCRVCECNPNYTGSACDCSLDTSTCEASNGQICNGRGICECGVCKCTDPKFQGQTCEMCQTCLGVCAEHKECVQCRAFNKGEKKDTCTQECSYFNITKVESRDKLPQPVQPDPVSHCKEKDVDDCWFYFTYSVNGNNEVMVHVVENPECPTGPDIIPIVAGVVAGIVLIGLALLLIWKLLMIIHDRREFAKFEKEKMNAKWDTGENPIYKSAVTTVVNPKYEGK
pIC50: −log10 of the molar value.
reported.metric: pIC50

Example compounds with recorded pIC50:
1) O=C(O)[C@H](Cc1cccc2c(-c3nccc4ccc(CCCN5CCC6(CC5)CC6)cc34)cccc12)NC(=O)C1(C(F)(F)F)CCN(C2COC2)CC1 = 6.00 to 7.00
2) COc1ccc(CCN2CCC3(CCCCC3)CC2)c(OC)c1-c1cccc2c(C[C@H](NC(=O)C3(C(F)(F)F)CCN(CC(F)(F)F)CC3)C(=O)O)cccc12 = 6.00 to 7.00
3) O=C(O)[C@H](Cc1cccc2c(-c3ncc(CN4CCC[C@@H](F)C4)c4ccccc34)cccc12)NC(=O)C1(C(F)(F)F)CCN(CC(F)(F)F)CC1 = < 6.00

Value lookup for pIC50; key = COc1ccc(CN2CCCC(C)(C)C2)c(OC)c1-c1cccc2c(C[C@H](NC(=O)C3(C(F)(F)F)CCN(CC(F)(F)F)CC3)C(=O)O)cccc12 < 6.00

Now the compound COc1ccc(CN2CC[C@H](F)C2)cc1-c1cccc2c(C[C@H](NC(=O)C3(C(F)(F)F)CCN(CC(F)F)CC3)C(=O)O)cccc12 7.00 to 8.00

Now the compound COc1ccc2c(c1-c1cccc3c(C[C@H](NC(=O)C4(C(F)(F)F)CCN(CC(F)(F)F)CC4)C(=O)O)cccc13)CCN(CC(F)F)C2 < 6.00

Now the compound O=C(O)[C@H](Cc1cccc2c(-c3ncc(CN4CCC4)c4ccccc34)cccc12)NC(=O)C1(C(F)(F)F)CCN(CC(F)F)CC1 < 6.00

Now the compound O=C(O)[C@H](Cc1cccc2c(-c3ncc(CN4CCC5(CC4)CC5)c4ccccc34)cccc12)NC(=O)C1(C(F)(F)F)CCN(CC(F)F)CC1 < 6.00

====

biological target: α4β1 integrin (Homo sapiens (Human), UniProt P05556+P13612); assay: Integrin Adhesion Assay: Protocol 5 (VCAM-coated plate, RPMI-8866 cells with stable LOF mutation of the ITGB7 gene); type: cell-based; conditions: RPMI-8866 cells with stable LOF mutation of the ITGB7 gene; read-out: Mean IC50 α4β1 KO^b
pIC50: −log10 of the molar value.
Recorded pIC50 values for a group of molecules are listed next.

Example molecules with recorded pIC50:
1) O=C(O)[C@H](Cc1cccc2c(-c3ccc(CN4CCCCC4)c4ccncc34)cccc12)NC(=O)C1(C(F)(F)F)CCN(CC(F)(F)F)CC1 = < 6.00
2) COc1ccc(CN2CC(F)(F)C2)c(OC)c1-c1cccc2c(C[C@H](NC(=O)c3c(C)cccc3F)C(=O)O)cccc12 = < 6.00
3) Cn1c(=O)c(-c2cccc3c(C[C@H](NC(=O)c4c(F)cccc4CN4CCC(C)(C)C4)C(=O)O)cccc23)c(C(F)(F)F)c2ccccc21 = < 6.00
4) Cn1c(=O)c(-c2cccc3c(C[C@H](NC(=O)C4(C(F)(F)F)CCN(CCC(F)(F)F)CC4)C(=O)O)cccc23)c(C(F)(F)F)c2ccccc21 = < 6.00

Value lookup for pIC50; key = CN(C)Cc1cccc2c(-c3cccc4c(C[C@H](NC(=O)C5(C)CCN(CC(F)(F)F)CC5)C(=O)O)cccc34)nccc12 < 6.00

Now the molecule COc1ccc(CN(C)C)nc1-c1cccc2c(C[C@H](NC(=O)c3c(C)cccc3F)C(=O)O)cccc12 6.00 to 7.00

Now the molecule Cc1cccc(C)c1-c1nc(C)c(C(=O)N[C@@H](Cc2cccc3c(-c4c(C(F)(F)F)c5ccccc5n(C)c4=O)cccc23)C(=O)O)n1C < 6.00

Now the molecule CC1(C(=O)N[C@@H](Cc2cccc3c(-c4ncc(CN5CCCCC5)c5ccccc45)cccc23)C(=O)O)CC2CCC(C1)N2C1COC1 (stereo partly drawn) < 6.00

Now the molecule COc1ccc(CN2CCCCC2(C)C)c(OC)c1-c1cccc2c(C[C@H](NC(=O)c3c(C)cccc3F)C(=O)O)cccc12 6.00 to 7.00

====

Target: α4β1 integrin (Homo sapiens (Human), UniProt P05556+P13612)
Test: Integrin Adhesion Assay: Protocol 5 (VCAM-coated plate, RPMI-8866 cells with stable LOF mutation of the ITGB7 gene)
Type: cell-based
Conditions: Protocol 5; RPMI-8866 cells with LOF mutation of ITGB7, VCAM; read-out: Mean IC50 α4β1 KO
Text: Integrin Adhesion Assay Using Genetically Modified Cells Generating Stable Cell Lines with ITGB1 or ITGB7 Knockout (Protocol 4 and Protocol 5) […] To generate an individual clones of cells deficient in either ITGB7 or ITGB1 by limiting dilution assay, the transfected cells were resuspended at 5 cells/mL and seeded in 384 well plates. Outgrowth of clones was monitored using a microscope, and 24 clones were transferred for expansion. […]
reported.metric: IC50

Example compounds with recorded IC50:
1. O=C(O)[C@H](Cc1cccc2c(-c3ncc(C(=O)N4CCN(C5CC5)CC4)c4ccccc34)cccc12)NC(=O)C1(C(F)(F)F)CCN(CC(F)F)CC1 = > 1000 nM
2. O=C(O)[C@H](Cc1cccc2c(-c3nccc4ccc(CCCN5CCCCC5)cc34)cccc12)NC(=O)C1(C(F)(F)F)CCN(CC(F)(F)F)CC1 = > 1000 nM

Now examine the next entry.
Value lookup for IC50; key = O=C(O)[C@H](Cc1cccc2c(-c3ncc(CN4CCC[C@H](F)C4)cc3C3CC3)cccc12)NC(=O)C1(C(F)(F)F)CCN(CC(F)F)CC1 100 to 1000 nM

====

target: α4β1 integrin (Homo sapiens (Human), UniProt P05556+P13612); test: Integrin Adhesion Assay: Protocol 5 (VCAM-coated plate, RPMI-8866 cells with stable LOF mutation of the ITGB7 gene); assay type: cell-based; conditions: Protocol 5; RPMI-8866 cells with LOF mutation of ITGB7, VCAM; read-out: Mean IC50 α4β1 KO
pIC50: −log10 of the molar value.
reported.metric: pIC50

Example compounds with recorded pIC50:
1. COc1ccc(CN2CCN(Cc3ccc(C(F)(F)F)cc3)CC2)c(OC)c1-c1cccc2c(C[C@H](NC(=O)C3(C(F)(F)F)CCN(CC(F)(F)F)CC3)C(=O)O)cccc12 = < 6.00
2. O=C(O)[C@H](Cc1cccc2c(-c3ncc(CN4CC5CC(C5)C4)c4ccccc34)cccc12)NC(=O)C1(C(F)(F)F)CCN(CC(F)F)CC1 = < 6.00
3. COc1cc(CN2CCC(F)(F)CC2)cc(C(F)(F)F)c1-c1cccc2c(C[C@H](NC(=O)C3(C(F)(F)F)CCN(CC(F)(F)F)CC3)C(=O)O)cccc12 = < 6.00

Value lookup for pIC50; key = O=C(O)[C@H](Cc1cccc2c(-c3nccc4ccc(CCN5CCCCC5)cc34)cccc12)NC(=O)C1(C(F)(F)F)CCN(CC(F)(F)F)CC1 < 6.00

Now the compound O=C(O)[C@H](Cc1cccc2c(-c3ncc(CCN4CCCCC4)c4ccccc34)cccc12)NC(=O)C1(C(F)(F)F)CCN(CC(F)F)CC1 6.00 to 7.00

Now the compound COc1cc(CN2CCCCC2)ccc1-c1cccc2c(C[C@H](NC(=O)C3(C(F)(F)F)CCN(CC(F)(F)F)CC3)C(=O)O)cccc12 < 6.00
